- SYSTEM_UNDER_TEST: T1, human β-amyloid 1-40 (human, UniProt P05067 672-711)
- T1 construct: domain: β-amyloid (1-40); Used in solution over captured antibody (Biacore) or coated on ELISA plates; also called human Aβ peptide (1-40); Aβ peptide (1-40)
- TEST_SUMMARY: SPR Biacore 3000; mAb captured on anti-mouse IgG, Aβ 1-40 at 4-500 nM
- Experimental: Purified mouse antibody preparations were captured on a polyclonal anti-mouse IgG antibody chip surface. Freshly prepared human β-amyloid 1-40 was diluted down in HBS-EP buffer and passed over the captured antibody surface at concentrations ranging from 4-500 nM for 5 minutes. […] Regeneration was achieved via a pulse of 100 mM H₃PO₄. […] All runs were double referenced against a blank surface and blank buffer injections.
RECORDED_ENDPOINT: Kd (nM)
Answer with a number only, understood to be in nM.

BINDER: 5C9 mouse monoclonal antibody (antibody, V domains shown, Mouse hybridoma antibody) VH: EVQLQQSGAEFVRPGASVKLSCTASGFNIKTYYIHWLKQRTDQGLEWIGRIDPEDGETKFGPKFRGKATLTADTSSNTASLQLSSLTSEDTGVYYCVTSGYWGQGTTLSVSS VL: DIVMTQAAFSNPVTLGTSASISCRSSKSLLHSNGITYLYWYLQKPGQSPQLLIYQMSNLASGVPDRFSSSGSGTDFTLRISRVEAEDVGVYYCAQNLELWTFGGGTKLEIK
Kd, nM: 2.69
//
BINDER: 6F6 murine monoclonal antibody (antibody, mouse IgG2a, V domains shown, also called 6F6 parental monoclonal antibody; mouse 6F6 monoclonal antibody) VH: EVQLQQSGAELVEPGASVKLSCTGSGFNIKVYYVHWLKQLTEQGLEWIGRIDPENGETIYTPKFQDKATLTVDTSSNTAYLQLSSLTSEDAAVYYCVSSGYWGQGTTLTVSS VL: DIVMTQSAFSNPVTLGTSASISCRSSKSLLHRNGITYLYWYLQKPGQPPQLLIYQMSNLASGVPDRFTSSGSGTDFTLKISRVEAEDVGVYYCAQNLELWTFGGGTKLEIK
Kd, nM: 0.62

Read the next record carefully.
**Q:** Requested field: Kd. Item: 14B3 mouse monoclonal antibody (antibody, V domains shown, Mouse hybridoma antibody) VH: EVQLQQSGAELVEPGASVKLSCTGSGFNIKVYYVHWLKQLTEQGLEWIGRIDPENGETLYTPKFQGKATFTVDTSSNTAYLQLSSLTSEDTAVYYCVSSGYWGQGTTLTVSS VL: DIVMTQSAFSNPVTLGTSASISCRSSKSLLHRNGITYLYWYLQKPGQSPQLLIYQMSNLASGVPDRFTSSGSGTDFTLKISRVEAEDVGVYYCAQNLELWTFGGGTKLEIK
**A:** 0.95
